System: HCT-116
Test: Cytotoxicity against P21 deficient human HCT116 cells after 48 hrs by MTS assay
Assay type: functional, cell-based
Settings: HCT-116, 48 h
Record form. Attribute: pIC50. Fill in for each entry.
Give bare numbers, as −log10 of the molar value.

Ask | Data request, read-out pIC50, for CC(=O)O[C@H]1CC[C@@]2(C)[C@@H](CC[C@]3(C)\C(=C(C)/C=C/C=C(\C)c4ccc(C)c(=O)o4)C(=O)C[C@@H]23)C1(C)C [STELLETTIN C]
Reply | 6.52

Ask | Data request, read-out pIC50, for CC(/C=C/C=C(C)/C=C/C=C(\C)C(=O)O)=C1/C(=O)C[C@H]2[C@@]3(C)CCC(=O)C(C)(C)[C@@H]3CC[C@]12C [STELLETIN E]
Reply | 7.41

Okay, next one:
Ask | Data request, read-out pIC50, for "CC(=O)O[C@H]1CC[C@@]2(C)[C@@H](CC[C@]3(C)\C(=C(C)/C=C/C=C(C)/C=C/C=C(\C)C(=O)O)C(=O)C[C@@H]23)C1(C)C"
Reply | 5.40

----------
Record form. Attribute: log10 of IC50. Fill in for each entry.
Test system: HCT-116
Experiment: Cytotoxicity against P21 deficient human HCT116 cells after 48 hrs by MTS assay
Type: functional, cell-based
Settings: HCT-116, 48 h
Reminder: these figures are log10 of reported IC50, in µM before transformation.

Ask | Data request, read-out log10 of IC50, for "CC(/C=C/C=C(\C)C(=O)O)=C\C=C\C(C)=C1\C(=O)C[C@H]2[C@@]3(C)CCC(=O)C(C)(C)[C@@H]3CC[C@]12C"
Reply | 0.54

Ask | Data request, read-out log10 of IC50, for "CC(=O)O[C@H]1CC[C@@]2(C)[C@@H](CC[C@]3(C)/C(=C(C)/C=C/C=C(C)/C=C/C=C(\C)C(=O)O)C(=O)C[C@@H]23)C1(C)C"
Reply | 0.59

Ask | Data request, read-out log10 of IC50, for "CC(=O)O[C@H]1CC[C@@]2(C)[C@@H](CC[C@]3(C)/C(=C(C)/C=C/C=C(\C)c4ccc(C)c(=O)o4)C(=O)C[C@@H]23)C1(C)C"
Reply | -0.51

Ask | Data request, read-out log10 of IC50, for "CC(/C=C/C=C(\C)c1ccc(C)c(=O)o1)=C1/C(=O)C[C@H]2[C@@]3(C)CCC(=O)C(C)(C)[C@@H]3CC[C@]12C"
Reply | -1.37

Okay, next one:
Ask | Data request, read-out log10 of IC50, for "C\C(=C/C=C/C(C)=C1/C(=O)C[C@H]2[C@@]3(C)CCC(=O)C(C)(C)[C@@H]3CC[C@]12C)c1ccc(C)c(=O)o1"
Reply | -0.59

----------
Test system: HCT-116
Assay: Cytotoxicity against P21+ wild type human HCT116 cells after 48 hrs by MTS assay
Type: functional, cell-based
Details: HCT-116, 48 h
IC50 strictly under 2 µM means satisfied; at 2 µM or over means not satisfied.

Ask | Is it true that IC50 reported for CC(/C=C/C=C(\C)c1ccc(C)c(=O)o1)=C1/C(=O)C[C@H]2[C@@]3(C)CCC(=O)C(C)(C)[C@@H]3CC[C@]12C [STELLETTIN B] is less than 2 µM?
Reply | satisfied

----------
System: HCT-116
Experiment: Cytotoxicity against P21+ wild type human HCT116 cells after 48 hrs by MTS assay
Format: functional, cell-based
Conditions: HCT-116, 48 h
experimental-readout: IC50 (µM)
Numbers only, in µM.

Ask | Record "CC(=O)O[C@H]1CC[C@@]2(C)[C@@H](CC[C@]3(C)\C(=C(C)/C=C/C=C(\C)c4ccc(C)c(=O)o4)C(=O)C[C@@H]23)C1(C)C" : what is its IC50 with HCT-116?
Reply | 2.45

Ask | Record "CC(=O)O[C@H]1CC[C@@]2(C)[C@@H](CC[C@]3(C)/C(=C(C)/C=C/C=C(\C)c4ccc(C)c(=O)o4)C(=O)C[C@@H]23)C1(C)C" : what is its IC50 with HCT-116?
Reply | 0.43

Ask | Record "CC(/C=C/C=C(C)/C=C/C=C(\C)C(=O)O)=C1/C(=O)C[C@H]2[C@@]3(C)CCC(=O)C(C)(C)[C@@H]3CC[C@]12C" : what is its IC50 with HCT-116?
Reply | 4.57

Okay, next one:
Ask | Record "C\C(=C/C=C/C(C)=C1/C(=O)C[C@H]2[C@@]3(C)CCC(=O)C(C)(C)[C@@H]3CC[C@]12C)c1ccc(C)c(=O)o1" : what is its IC50 with HCT-116?
Reply | 4.46

----------
Test system: HCT-116
Assay: Cytotoxicity against P21+ wild type human HCT116 cells after 48 hrs by MTS assay
Type: functional, cell-based
Conditions: HCT-116, 48 h
pIC50: −log10 of the molar value.
Record form. Attribute: pIC50. Fill in for each entry.

Example entries and their recorded answers appear below.
Ask | Data request, read-out pIC50, for "CC(=O)O[C@H]1CC[C@@]2(C)[C@@H](CC[C@]3(C)\C(=C(C)/C=C/C=C(C)/C=C/C=C(\C)C(=O)O)C(=O)C[C@@H]23)C1(C)C"
Reply | < 5.31

Ask | Data request, read-out pIC50, for "CC(=O)O[C@H]1CC[C@@]2(C)[C@@H](CC[C@]3(C)/C(=C(C)/C=C/C=C(C)/C=C/C=C(\C)C(=O)O)C(=O)C[C@@H]23)C1(C)C"
Reply | < 5.31

Okay, next one:
Ask | Data request, read-out pIC50, for "CC(/C=C/C=C(\C)C(=O)O)=C\C=C\C(C)=C1\C(=O)C[C@H]2[C@@]3(C)CCC(=O)C(C)(C)[C@@H]3CC[C@]12C"
Reply | < 5.27
